Each recorded value in this set is attributed to patent EP1192182B1.

measurement.target: T1, PACAP-R3 (human, UniProt P41587 24-438)
T1 sequence (looked up): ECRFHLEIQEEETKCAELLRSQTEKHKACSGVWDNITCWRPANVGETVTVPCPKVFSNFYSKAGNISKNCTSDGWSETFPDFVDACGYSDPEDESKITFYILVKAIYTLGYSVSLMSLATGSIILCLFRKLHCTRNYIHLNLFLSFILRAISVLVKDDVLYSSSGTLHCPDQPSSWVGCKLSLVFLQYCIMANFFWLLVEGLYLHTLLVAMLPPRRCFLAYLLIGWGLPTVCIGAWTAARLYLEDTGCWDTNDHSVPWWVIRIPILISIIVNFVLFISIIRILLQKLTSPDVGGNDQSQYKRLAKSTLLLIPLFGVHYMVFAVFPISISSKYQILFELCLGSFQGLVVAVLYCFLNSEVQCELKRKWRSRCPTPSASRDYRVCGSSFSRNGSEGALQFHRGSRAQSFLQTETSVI
test.method.notes: cell-based or functional assay
No end group written: not given here.
Classification field: Yes = R3 Selectivity at or over 70 ratio; No = R3 Selectivity under 70 ratio.

*Q* Is R3 Selectivity at least 70 ratio? Consider HSDAVFTDNYTRLRKQMASKKYLNSIKNKR [R3P110]
*A* Yes

*Q* Is R3 Selectivity at least 70 ratio? Consider HSDAVFTDNYTRLRKQLAAKKYLNDIKKG [R3P32]
*A* Yes

*Q* Is R3 Selectivity at least 70 ratio? Consider HSDAVFTDNYTELRKQMAVKKYLNSILN [R3P44]
*A* No

*Q* Is R3 Selectivity at least 70 ratio? Consider HSDAVFTDNYTRLRKQLAAKKYLNSIKKGGT [R3P22]
*A* No

*Q* Is R3 Selectivity at least 70 ratio? Consider HSDAVFTDNYTRLRKQLAAKKYLNDIKK-NH2 [R3P13]
*A* No

*Q* Is R3 Selectivity at least 70 ratio? Consider HSDAVFTDNYTRLRKQMAAKKYLNSIKNTR [R3P148]
*A* Yes

*Q* Is R3 Selectivity at least 70 ratio? Consider HSDAVFTDNYTRLRKQMAVKKYLNSIKKKRY [R3P56]
*A* Yes
